Would you kindly list pKd for each of these molecules?
- target of assay: Nucleic Acid
- measurement notes: Binding affinity to weaker binding site of unlabeled stem loop 2 HIV1 RNA of packaging element psi by isothermal titration calorimetry
- Type: nucleic-acid assay, Human immunodeficiency virus 1
For clarity, pKd is expressed as the negative log10 of concentration in mol/L.

Q) pKd lookup needed for Cc1cc(N2CCN(C)CC2)n2nc(-c3ccc(Cl)cc3)nc2n1 , thanks.
A) 2.65

Q) Now give it for COC1=C(C)C(=O)c2c(c(COC(N)=O)c3n2CC2C3N2C)C1=O (configuration not stated) too.
A) 1.96

====

- target of assay: Nucleic Acid
- measurement notes: Binding affinity to fluorescein-labeled HIV1 duplex RNA of packaging element psi by titration method
- Assay type: nucleic-acid assay, Human immunodeficiency virus 1
Would you kindly list pKd for each of these compounds?
For clarity, pKd is expressed as the negative log10 of concentration in mol/L.

Q) pKd lookup needed for COC1=C(C)C(=O)c2c(c(COC(N)=O)c3n2CC2C3N2C)C1=O (stereo not given) , thanks.
A) 3.46

Q) Now give it for CCOC(=O)c1c2c(n3ccccc13)C(=O)c1ccccc1C2=O too.
A) 5.52

Q) Now give it for COc1ccc2nc3cc(Cl)ccc3c(Nc3ccc(O)c(CN4CCN(C)CC4)c3)c2c1 too.
A) 6.06

Q) Now give it for C[N+](C)(C)CCN[N+]1(C)CCCc2ccccc21 (stereo not given) too.
A) 5.21

Q) Now give it for Cc1cc(N2CCN(C)CC2)n2nc(-c3ccc(Cl)cc3)nc2n1 too.
A) 4.16

====

- target of assay: Nucleic Acid
- measurement notes: Binding affinity to fluorescein-labeled stem loop 3 HIV1 duplex RNA of packaging element psi by titration method
- Format: nucleic-acid assay, Human immunodeficiency virus 1
- assay context: read-out: Kd
Would you kindly list Kd for each of these molecules?
Field note: include the unit after the figure.

Q) Kd lookup needed for C[N+](C)(C)CCN[N+]1(C)CCCc2ccccc21 (configuration not stated) , thanks.
A) 14 µM

Q) Now give it for Cc1cc(N2CCN(C)CC2)n2nc(-c3ccc(Cl)cc3)nc2n1 too.
A) 58 µM

====

- target of assay: Nucleic Acid
- measurement notes: Binding affinity to fluorescein-labeled 14mer stem loop 3 HIV1 RNA of packaging element psi by titration method
- Type: nucleic-acid assay, Human immunodeficiency virus 1
Would you kindly list Kd for each of these compounds?
Just the number please, in µM, no unit attached.

Q) Please provide the recorded Kd for C[N+]1(C)C2CC(OC(=O)C(CO)c3ccccc3)CC1C1OC12 (stereo not drawn) , tested on Nucleic Acid.
A) 157

Q) Now give it for COC1=C(C)C(=O)c2c(c(COC(N)=O)c3n2CC2C3N2C)C1=O (stereo not drawn) too.
A) 98

Q) Now give it for Cc1cc(N2CCN(C)CC2)n2nc(-c3ccc(Cl)cc3)nc2n1 too.
A) 11

====

- target of assay: Nucleic Acid
- measurement notes: Binding affinity to unlabeled 20mer stem loop 3 HIV1 RNA of packaging element psi by titration method
- Assay type: nucleic-acid assay, Human immunodeficiency virus 1
quantity kind: Kd (µM)
Just the number please, in µM, no unit attached.

Q) Kd lookup needed for CN(C)c1ncnc2c1ncn2CCn1cnc2ncnc(N(C)C)c21 , thanks.
A) 32

====

Would you kindly list pKd for each of these compounds?
- target of assay: Nucleic Acid
- measurement notes: Binding affinity to fluorescein-labeled HIV1 single-stranded RNA of packaging element psi by titration method
- Assay type: nucleic-acid assay, Human immunodeficiency virus 1
For clarity, pKd is expressed as the negative log10 of concentration in mol/L.

Q) pKd lookup needed for C[N+](C)(C)CCN[N+]1(C)CCCc2ccccc21 (stereo not given) , thanks.
A) 5.11

Q) Now give it for CCOC(=O)c1c2c(n3ccccc13)C(=O)c1ccccc1C2=O too.
A) 5.64

Q) Now give it for COc1ccc2nc3cc(Cl)ccc3c(Nc3ccc(O)c(CN4CCN(C)CC4)c3)c2c1 too.
A) 5.52

Q) Now give it for Cc1cc(N2CCN(C)CC2)n2nc(-c3ccc(Cl)cc3)nc2n1 too.
A) 3.56

====

- target of assay: Nucleic Acid
- measurement notes: Binding affinity to fluorescein-labeled stem loop 2 HIV1 RNA of packaging element psi by titration method
- Assay type: nucleic-acid assay, Human immunodeficiency virus 1
- assay context: read-out: Kd
quantity kind: Kd (µM)
Just the number please, in µM, no unit attached.

Q) Kd lookup needed for Cc1cc(N2CCN(C)CC2)n2nc(-c3ccc(Cl)cc3)nc2n1 , thanks.
A) 46

====

- target of assay: Nucleic Acid
- measurement notes: Binding affinity to fluorescein-labeled 20mer stem loop 3 HIV1 RNA of packaging element psi by titration method
- Type: nucleic-acid assay, Human immunodeficiency virus 1
quantity kind: Kd (nM)
Just the number please, in nM, no unit attached.

Q) Kd lookup needed for C[N+](C)(C)CCN[N+]1(C)CCCc2ccccc21 (stereo not given) , thanks.
A) 1500

Q) Now give it for CCOC(=O)c1c2c(n3ccccc13)C(=O)c1ccccc1C2=O too.
A) 1400

Q) Now give it for COc1ccc2nc3cc(Cl)ccc3c(Nc3ccc(O)c(CN4CCN(C)CC4)c3)c2c1 too.
A) 670

Q) Now give it for O=C1Oc2ccccc2C(=O)/C1=C/N1C(=O)N/C(=C\c2ccccc2O)C1=O too.
A) 163000

Q) Now give it for C[N+]1(C)CCc2cc(O)c(O)cc2C1Cc1ccc(O)c(O)c1 (stereo not given) too.
A) 135000

====

- target of assay: Nucleic Acid
- measurement notes: Binding affinity to fluorescein-labeled stem loop 4 HIV1 RNA of packaging element psi by titration method
- Assay type: nucleic-acid assay, Human immunodeficiency virus 1
quantity kind: pKd
For clarity, pKd is expressed as the negative log10 of concentration in mol/L.

Q) pKd lookup needed for Cc1cc(N2CCN(C)CC2)n2nc(-c3ccc(Cl)cc3)nc2n1 , thanks.
A) 4.15

Recorded values, source ChEMBL document CHEMBL1154238.
